# assay-summary: chemical genetic growth profiling, strain panel (AID 1159580);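 also: tested at 20 µM; growth read once vehicle control cultures reached saturation at 30 °C; lower values mean less growth of the strain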
# run-parameters: S. cerevisiae deletion strains, growth OD, locus YGR252W, strain gcn5, active compounds read low
Hit rate of the full screen: of about 5,500 compounds, about 2,000 (36%) were called active. Another 18% or so got no clear call; they are omitted. The list shows a part of the results.
# if measured normalized growth < 1: Condition met  # else: Condition not met

# count of solved cases: 3
Cc1cccc(CN2CCN(C(c3ccccc3)c3ccc(Cl)cc3)CC2)c1 (stereo not given)
Condition met
COc1ccc(/C=C/c2cc(O)cc(O)c2)cc1
Condition met
CN=C1CN(O)C(c2ccccc2)=c2cc(Cl)ccc2=N1
Condition not met

Please look at the following compound next.
Just wondering, is normalized growth of COc1ccc(/C=C/c2cc(O)cc(O[C@@H]3O[C@H](CO)[C@@H](O)[C@H](O)[C@H]3O)c2)cc1O below 1?
Condition not met
